molecular target: Neurogenic locus notch homolog protein 3 (Homo sapiens) (UniProt Q9UM47); assay: small molecules binding NOTCH3 protein – biochemical, 635/667 nm fluorescence, primary screen (AID 1096); conditions: small-molecule microarray, 635 nm fluorescence, higher = more signal
Sequence (Q9UM47 whole entry, looked up): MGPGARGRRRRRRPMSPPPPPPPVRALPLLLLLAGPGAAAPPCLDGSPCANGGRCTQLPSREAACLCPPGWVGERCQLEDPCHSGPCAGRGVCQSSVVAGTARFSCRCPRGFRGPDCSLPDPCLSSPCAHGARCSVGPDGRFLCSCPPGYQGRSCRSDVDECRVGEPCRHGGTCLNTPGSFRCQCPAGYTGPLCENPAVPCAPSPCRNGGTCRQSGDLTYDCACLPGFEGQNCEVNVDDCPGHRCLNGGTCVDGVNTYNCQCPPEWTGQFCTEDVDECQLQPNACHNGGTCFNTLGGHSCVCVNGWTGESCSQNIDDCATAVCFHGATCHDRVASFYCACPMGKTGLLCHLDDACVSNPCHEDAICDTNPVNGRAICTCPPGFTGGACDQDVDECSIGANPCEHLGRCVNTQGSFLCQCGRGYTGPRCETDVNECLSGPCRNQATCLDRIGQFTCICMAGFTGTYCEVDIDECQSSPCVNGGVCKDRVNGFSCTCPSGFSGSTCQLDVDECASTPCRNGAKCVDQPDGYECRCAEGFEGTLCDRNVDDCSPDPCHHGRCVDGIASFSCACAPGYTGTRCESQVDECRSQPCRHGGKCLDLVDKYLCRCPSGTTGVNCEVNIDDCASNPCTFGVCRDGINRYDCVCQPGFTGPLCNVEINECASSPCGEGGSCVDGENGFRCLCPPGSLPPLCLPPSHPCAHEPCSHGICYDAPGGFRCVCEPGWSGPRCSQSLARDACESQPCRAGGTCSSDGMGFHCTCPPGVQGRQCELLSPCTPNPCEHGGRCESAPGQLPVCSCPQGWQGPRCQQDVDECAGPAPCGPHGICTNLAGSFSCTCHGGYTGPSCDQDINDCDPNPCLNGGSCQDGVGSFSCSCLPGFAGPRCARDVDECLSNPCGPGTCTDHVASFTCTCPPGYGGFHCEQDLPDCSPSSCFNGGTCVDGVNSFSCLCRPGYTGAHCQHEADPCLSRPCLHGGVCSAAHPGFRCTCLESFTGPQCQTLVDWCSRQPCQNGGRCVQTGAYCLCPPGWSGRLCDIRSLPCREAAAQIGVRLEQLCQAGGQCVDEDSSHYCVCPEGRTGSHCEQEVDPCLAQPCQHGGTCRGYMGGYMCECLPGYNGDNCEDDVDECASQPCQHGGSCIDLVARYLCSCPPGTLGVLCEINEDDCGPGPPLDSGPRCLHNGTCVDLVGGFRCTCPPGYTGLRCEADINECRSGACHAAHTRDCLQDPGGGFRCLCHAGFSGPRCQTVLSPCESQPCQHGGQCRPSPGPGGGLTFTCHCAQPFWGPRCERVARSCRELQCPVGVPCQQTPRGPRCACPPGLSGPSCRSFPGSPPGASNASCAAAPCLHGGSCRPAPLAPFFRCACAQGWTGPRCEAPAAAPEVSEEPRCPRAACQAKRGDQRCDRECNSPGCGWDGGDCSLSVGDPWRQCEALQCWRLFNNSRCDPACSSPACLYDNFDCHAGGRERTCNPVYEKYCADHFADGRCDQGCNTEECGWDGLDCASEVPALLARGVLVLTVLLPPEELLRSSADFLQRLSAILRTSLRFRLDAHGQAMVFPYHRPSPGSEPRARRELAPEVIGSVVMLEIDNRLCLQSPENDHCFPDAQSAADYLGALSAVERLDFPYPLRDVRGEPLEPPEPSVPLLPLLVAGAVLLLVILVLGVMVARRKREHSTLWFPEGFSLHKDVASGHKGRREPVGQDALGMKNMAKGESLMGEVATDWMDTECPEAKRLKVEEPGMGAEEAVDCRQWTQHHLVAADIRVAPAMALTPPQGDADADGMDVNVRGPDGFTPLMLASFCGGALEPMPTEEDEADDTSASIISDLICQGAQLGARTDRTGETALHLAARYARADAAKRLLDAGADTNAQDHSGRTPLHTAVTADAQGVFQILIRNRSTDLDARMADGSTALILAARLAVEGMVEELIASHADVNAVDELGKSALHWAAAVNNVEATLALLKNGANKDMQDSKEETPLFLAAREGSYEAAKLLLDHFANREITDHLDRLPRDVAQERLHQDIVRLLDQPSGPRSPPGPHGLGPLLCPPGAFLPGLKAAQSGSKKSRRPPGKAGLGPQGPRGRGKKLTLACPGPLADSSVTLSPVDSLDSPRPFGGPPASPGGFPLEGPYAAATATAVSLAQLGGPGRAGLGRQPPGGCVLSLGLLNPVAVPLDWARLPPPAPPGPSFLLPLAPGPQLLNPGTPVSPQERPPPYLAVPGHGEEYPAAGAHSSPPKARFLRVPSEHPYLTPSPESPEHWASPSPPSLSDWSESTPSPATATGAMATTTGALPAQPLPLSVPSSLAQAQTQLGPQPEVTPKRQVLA
Assign class by composite z-score: not lower than 0.5 means True; lower than 0.5 means False.

Query: Check the entry `O=C1C[C@@](C(=O)NCc2ccccc2)(c2ccc([N+](=O)[O-])cc2)[C@@H](c2ccc(CO)cc2)N1C1CCCCC1` : does composite z-score equal or exceed 0.5?
Reply: True

Query: Try this compound next: `[N-]=[N+]=NCc1ccccc1[C@@H]1OC(c2ccc(OCCCO)cc2)=N[C@]1(Cc1ccccc1N=[N+]=[N-])C(=O)O`
Reply: True

Query: // query: N#Cc1ccc(C(O)C2C=CC3C(=O)NC(=O)C3N2Nc2ccc(Cl)cc2Cl)cc1 (centres undefined)
Reply: True

Query: Try this compound too: `C=C(CCCC)C(=O)CC[C@H](OC(=O)c1ccccc1-c1ccccc1C(=O)O)c1ccc(OCCO)cc1`
Reply: False

Query: Next up: OCCCC1=CC(c2ccc(CN3CCCC3)cc2)N(Cc2cccc(OC(F)(F)F)c2)CC1 (centres undefined)
Reply: False

Query: How about this compound: CC(C)(C)N1CC=CC23O[C@@H]4/C=C\CCCOC(=O)C4[C@H]2C(=O)N(CCCO)[C@@H]3C1=O (some centres undefined)
Reply: False

Query: One more compound: `COC(=O)[C@]1(CCC(=O)OC(C)(C)C)N=C(c2ccc(OCCCO)cc2)O[C@@H]1c1ccccc1N=[N+]=[N-]`
Reply: False

Query: // query: `O=C1C[C@@](C(=O)NC2CC2)(c2ccc([N+](=O)[O-])cc2)[C@@H](c2ccc(CO)cc2)N1C1CCCCC1`
Reply: True

Query: Item: C=CCC(OC(C)=O)[C@@H]1[C@@H](N(Cc2ccc(-c3ccccc3)cc2)C(=O)c2cccc3ccccc23)c2cc(OCCCO)ccc2N1C(=O)Cc1ccc(OC)cc1 (some centres undefined)
Reply: False

Query: Param item: `O=C(N1CCOCC1)[C@@]1(Cc2ccccc2)COC(c2ccc(OCCCO)cc2)=N1`
Reply: False

Query: One more compound: `COC(=O)[C@H](Cc1ccccc1)N1CC2=CCCC=C[C@@H]2[C@H]1[C@H](O)Cc1ccccc1`
Reply: False

Query: # repeat for CC(C)C[C@H]1NC(=O)C([C@@H](C)OCc2ccccc2)NC(=O)[C@@]23C(=O)N[C@@H](Cc4ccccc4)C2[C@H](C)[C@@]2(C)O[C@H]2C3/C=C/C/C=C\CNC1=O (some centres undefined)
Reply: True

Query: Could you do the same for `COCCOC(=O)N1C(=O)[C@@]2(c3cc(C#CCC(C(=O)OC)C(=O)OC)ccc31)[C@H](c1ccc(O)cc1)N1[C@H](c3ccccc3)[C@H](c3ccccc3)OC(=O)[C@H]1[C@@H]2C(=O)Nc1nc2ccccc2s1` , please?
Reply: True

Query: Would you mind doing `COc1ccc([Si](C)(C)[C@H]2[C@H](CCO)O[C@@]3(C(=O)N(Cc4cccc(N5C(=O)c6ccccc6Oc6ccccc65)c4)c4ccccc43)[C@@H]2C)cc1` as well?
Reply: False

Value source: PubChem BioAssay
